- Test system: COLO 205 colon
- METHOD: NCI tumour cell line growth inhibition, 48 h
RECORDED METRIC: TGI

Prompt line: Check the records and state TGI for Cc1cc2c(C)nn(Cc3ccccc3)c2c(C(=O)O)c1C
Response line: > 100 µM

Prompt line: Give the reported value of TGI for this record: O=C(O)CN(CC(=O)O)C1CCCCC1N1CC(=O)OC(=O)C1 (stereo unspecified)
Response line: > 100 µM

Prompt line: Give the reported value of TGI for this record: C=CCSC1=N/C(=C\c2ccc(Cl)cc2)C(=O)N1CC=C
Response line: > 100 µM

Prompt line: Answer with reported TGI of COc1ccc([C@H]2[C@H]3COC(=O)[C@H]3C(C#N)=C3Sc4ccccc4N32)cc1
Response line: 34.5 µM

Prompt line: For the compound Cn1c(=O)nc2n(-c3ccc(O)cc3)c3ccccc3nc-2c1=O , report TGI.
Response line: > 100 µM

Prompt line: Please indicate TGI recorded for Nc1ncn([C@@H]2S[C@H](CO)[C@@H](O)[C@@H]2F)c(=O)n1
Response line: > 100 µM

Prompt line: Give recorded TGI. CC12CCC(CC(=O)/C1=C(/Br)I)C2(C)C (stereo unspecified)
Response line: 31.9 µM

Prompt line: Tell me its TGI given CCOc1ccccc1CCN=C1NC(=O)/C(=C/c2ccc3ncccc3c2)S1 as the entry.
Response line: 3.07 µM

Prompt line: Identify measured TGI corresponding to Cc1ccc(C(=N)c2ccccc2Cc2cccc3ccccc23)c2ccccc12
Response line: > 100 µM

Prompt line: Check the records and state TGI for C[C@@H]1OC(=O)C[C@H]2CC(=O)N(CCC3CN(C(=O)OCc4ccccc4)c4ccccc43)C[C@@H]21 (stereo partly specified)
Response line: > 100 µM

Prompt line: Please look at this compound and report its TGI: CNC(=S)Nc1ccc(OC)c2ccccc12
Response line: > 10 µM

Prompt line: Report TGI for CC1=C2C(=C[C@@](C)(CO)[C@@H]2OC(=O)N(C)CCN(C)C(=O)OC(C)(C)C)C(=O)[C@](C)(O)C12CC2
Response line: 14.3 µM

Prompt line: Please indicate TGI recorded for Nc1n(CC(=O)c2ccccc2)nc2sc(-c3ccccc3)n[n+]12
Response line: 47 µM

Prompt line: Identify the reported TGI for the following entry. Cc1nc(C(N)=O)c(N)n1CCN1CCN(C(=O)CCCCCCCCCCNC2N=CNc3nc[nH]c32)CC1 (stereo unspecified)
Response line: > 100 µM

Prompt line: Supply measured TGI of CCSCCCSCCSCC in your reply.
Response line: > 100 µM

Prompt line: Provide only the value of recorded TGI for CC(=O)Nc1ccc2c(C)c3c(nc2n1)[nH]c1ccccc13
Response line: 32 µM
